- experimental details: yeast display, Sf9 membrane polyspecificity reagent, FACS + sequencing; frameworks hold sequencing errors
readout kind: polyreactivity (PSR sort gate)

Study these solved cases before continuing.
[
  {
    "monomer sequence": "QVQLVESGGGLVQAGGSLRLSCAASGYIFDHYAMGWYRQAPGKEREFVAAISRSAGSTYYADSVKGRFTISRDNAQNTVYLQMNSLKPEDTAVYYCNAVVAVRSWRKYEYWGQGTQVTVSS",
    "result": "high polyreactivity"
  },
  {
    "monomer sequence": "QVQLVESGGGLVQAGGRLRLTCAASGRIFFWYVMGWYRQATGKERELVAAISSGGRTYYADAVKGRFTISRDNAKNTVYLQMNSLKPEDTAVYYCNVEEYHVRADIGYSNYGYWGQGTQVTVSS",
    "result": "low polyreactivity"
  },
  {
    "monomer sequence": "QVQLVESGGGLVQAGGSLRLSCAASGRIFSYNAMGWYRQAPGKERELVAAITFSGGGTYYADSVKGRFTISRDNAKNTVYLQMNSLKPEDTAVYYCAADVPPKYRHRYNLYDYWGQGTQVTVSS",
    "result": "low polyreactivity"
  },
  {
    "monomer sequence": "QVQLVESGGGLVQAGGSLRLSCAASGSIFYPYAMGWYRQAPGKERELVAAIRFSGGRTYYADSVKGRFTISRDNAKNTVYLQMNSLKPEDTAVYYCAAEYYGIYSPYDYWGQGTQVTVSS",
    "result": "high polyreactivity"
  }
]

I'm hoping you can list polyreactivity (PSR sort gate) for every sequence here, please.
1. QVHLVESGGGLDQAGGSLRLSCAASGSIYGPYAMGWYRQAPGKERELVAAIRSGGSTNYADSVKGRFTITRDNAKNTVYLLMTSLKPEDTAVYYCAAEYWGYPYDYWGQGTQVTVSS
2. QVQLVESGGGLVQAGGSLSLSCAASGYIFLVYAMGWYRQAPGKERELVASITRGGGTTYYADSVKGRFTISRDNAKNTVYLLMNSLKREDTAVYYCAADLYSRGHRWYGYWGQGTQVTVSS
3. QVQLVESGGGLVQAGGSLRLSCAASGRTFYIYAMGWYRQAPGKERELVAAITWRGGRTYYADSVKGRFTISRDNAKNTVYLQMNSLKPEDTAVYYCAARTGQGPLYNHWGQGTQVTVSS
4. QVQLVESGGGIVQAGGSLRLSCAASGNTFGYYAMGWYRPAPGKERELVASISYSGGSTYADSVKGRFTISRDNAKNTVYLQMNSLKPEDTAVYYCAADYWIYAADSWVLYDSWGQGTQVTVSS

[out]
["low polyreactivity", "high polyreactivity", "high polyreactivity", "low polyreactivity"]

I'm hoping you can list polyreactivity (PSR sort gate) for every sequence here, please.
1. QVQLVESGGCLVQAGGSIRLSCAASGSILGFNAMGWSRQAPGKERELVAAISTSGSSTYYADSVKGRFTISRDNATISVYLLMNSLIPEDTAVYYCAKRRGGSRPYYYWGQRTQVTVSS
2. QVQLVESGGGLVQAGGSLRLSGAASGRTFGSNDMGWYRQAHGKERELVAAISGRTDSTYYADSVKGRFTISRDIAKNTVYLQMNSLKPEDTAVYYCAADSADVLYYYIRYNYWGQGTQVTVSS
3. QVQLVESGGRLVQAGGSLRLRCAASGYIFVYNAKGWYRQAPGKARELVAAITDGGGSTYADSVKGRFTISRDNAKNTVYLQMNSLKPEDTAVYYCAARYSDTTWYVLYYYWVQGTQVTVSS

[out]
high polyreactivity
low polyreactivity
low polyreactivity
